Source of measurements: patent US8030341B2

- Target under test: δ-opioid receptor (Mus musculus)
- Construct: from tissue; host or cells: isolated mouse vas deferens
- Sequence (P32300 whole entry): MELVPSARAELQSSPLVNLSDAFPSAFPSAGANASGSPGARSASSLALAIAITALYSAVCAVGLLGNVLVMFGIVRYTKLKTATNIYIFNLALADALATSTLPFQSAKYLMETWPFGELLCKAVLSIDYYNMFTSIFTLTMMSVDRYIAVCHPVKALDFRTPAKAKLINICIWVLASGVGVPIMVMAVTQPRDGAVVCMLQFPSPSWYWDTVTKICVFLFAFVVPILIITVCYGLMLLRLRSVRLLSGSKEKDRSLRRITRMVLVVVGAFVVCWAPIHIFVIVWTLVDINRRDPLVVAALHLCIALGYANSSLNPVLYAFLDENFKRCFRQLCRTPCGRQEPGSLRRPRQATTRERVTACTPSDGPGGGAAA
- Assay protocol: mouse vas deferens (MVD) bioassay
- Format: cell-based
- Condition: Table 2; inhibition of electrically evoked contraction; read-out: MVD agonist IC50
pIC50: −log10 of the molar value.
Property measured: pIC50

Exercise: Item Cc1cc(O)cc(C)c1CC(N)C(=O)N1Cc2ccccc2CC1C(=O)NCCc1cnc(CCNC(=O)C2Cc3ccccc3CN2C(=O)C(N)Cc2c(C)cc(O)cc2C)c(=O)[nH]1 (stereo not shown) with δ-opioid receptor (Mus musculus) - pIC50?
Key: < 5.00

* * *

Can you tell me pKi for the items I'm about to list?
- Target under test: μ-opioid receptor (Rattus norvegicus, UniProt P33535)
- Construct: from tissue; host or cells: rat brain P2 synaptosomal membranes (Sprague-Dawley)
- Sequence (P33535 whole entry): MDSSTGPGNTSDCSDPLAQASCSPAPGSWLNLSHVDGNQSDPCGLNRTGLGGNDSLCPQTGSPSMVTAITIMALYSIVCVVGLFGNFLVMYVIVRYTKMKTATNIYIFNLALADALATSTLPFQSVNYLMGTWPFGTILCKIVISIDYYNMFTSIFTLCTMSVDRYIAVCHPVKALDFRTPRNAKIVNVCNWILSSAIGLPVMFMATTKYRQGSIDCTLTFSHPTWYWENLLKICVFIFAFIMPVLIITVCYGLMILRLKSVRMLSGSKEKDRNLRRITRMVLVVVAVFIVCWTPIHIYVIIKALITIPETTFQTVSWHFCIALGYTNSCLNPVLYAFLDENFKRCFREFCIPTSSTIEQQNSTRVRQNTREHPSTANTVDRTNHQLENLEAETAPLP
- Assay protocol: opioid receptor binding competition assay, rat brain P2 synaptosomal membranes (μ)
Answers are plain numbers, as −log10 of the molar value.

# batch: return pKi for each of the 7 molecules below
1. Cc1cc(O)cc(C)c1CC(N)C(=O)N1Cc2ccccc2CC1C(=O)NCCCCNC(=O)C1Cc2ccccc2CN1C(=O)C(N)Cc1c(C)cc(O)cc1C (stereo not shown)
2. Cc1cc(O)cc(C)c1CC(N)C(=O)N1Cc2ccccc2CC1C(=O)NCCCCCCNC(=O)C1Cc2ccccc2CN1C(=O)C(N)Cc1c(C)cc(O)cc1C (stereo not shown)
3. C=CCN(CC=C)[C@@H](Cc1ccc(O)cc1)C(=O)N1CCC[C@H]1C(=O)N[C@@H](Cc1ccccc1)C(=O)N[C@@H](Cc1ccccc1)C(N)=O [Compound 28, [N,N-Diallyl-Tyr^1]EM-2]
4. Cc1cc(O)cc(C)c1CC(N)C(=O)N1Cc2ccccc2CC1C(=O)NCCCCCCCCCCNC(=O)C1Cc2ccccc2CN1C(=O)C(N)Cc1c(C)cc(O)cc1C (stereo not shown)
5. Cc1cc(O)cc(C)c1CC(N)C(=O)N1Cc2ccccc2CC1C(=O)NCc1[nH]c(=O)c(CNC(=O)C2Cc3ccccc3CN2C(=O)C(N)Cc2c(C)cc(O)cc2C)nc1C (stereo not shown)
6. C=CCN[C@@H](Cc1c(C)cc(O)cc1C)C(=O)NCCCc1[nH]c(=O)c(CCCNC(=O)[C@H](Cc2c(C)cc(O)cc2C)NCC=C)nc1C [Compound 32, Bis-[(N-allyl)Dmt-NH-propyl]pyrazinone]
7. Cc1cc(O)cc(C)c1CC(C(=O)N1Cc2ccccc2CC1C(=O)NCCCCCCNC(=O)C1Cc2ccccc2CN1C(=O)C(Cc1c(C)cc(O)cc1C)N(C)C)N(C)C (stereo not shown)

Key:
8.24
8.75
5.98
8.31
8.42
7.91
8.66
